Form field: DC50 (one value per entry).
# testSystem: BRM (Homo sapiens, UniProt P51531)
# Construct: In-Cell Western Screen of BRM Degradation in SW1573 Cells; endogenous in cells; host or cells: SW1573
# Sequence (P51531 whole entry): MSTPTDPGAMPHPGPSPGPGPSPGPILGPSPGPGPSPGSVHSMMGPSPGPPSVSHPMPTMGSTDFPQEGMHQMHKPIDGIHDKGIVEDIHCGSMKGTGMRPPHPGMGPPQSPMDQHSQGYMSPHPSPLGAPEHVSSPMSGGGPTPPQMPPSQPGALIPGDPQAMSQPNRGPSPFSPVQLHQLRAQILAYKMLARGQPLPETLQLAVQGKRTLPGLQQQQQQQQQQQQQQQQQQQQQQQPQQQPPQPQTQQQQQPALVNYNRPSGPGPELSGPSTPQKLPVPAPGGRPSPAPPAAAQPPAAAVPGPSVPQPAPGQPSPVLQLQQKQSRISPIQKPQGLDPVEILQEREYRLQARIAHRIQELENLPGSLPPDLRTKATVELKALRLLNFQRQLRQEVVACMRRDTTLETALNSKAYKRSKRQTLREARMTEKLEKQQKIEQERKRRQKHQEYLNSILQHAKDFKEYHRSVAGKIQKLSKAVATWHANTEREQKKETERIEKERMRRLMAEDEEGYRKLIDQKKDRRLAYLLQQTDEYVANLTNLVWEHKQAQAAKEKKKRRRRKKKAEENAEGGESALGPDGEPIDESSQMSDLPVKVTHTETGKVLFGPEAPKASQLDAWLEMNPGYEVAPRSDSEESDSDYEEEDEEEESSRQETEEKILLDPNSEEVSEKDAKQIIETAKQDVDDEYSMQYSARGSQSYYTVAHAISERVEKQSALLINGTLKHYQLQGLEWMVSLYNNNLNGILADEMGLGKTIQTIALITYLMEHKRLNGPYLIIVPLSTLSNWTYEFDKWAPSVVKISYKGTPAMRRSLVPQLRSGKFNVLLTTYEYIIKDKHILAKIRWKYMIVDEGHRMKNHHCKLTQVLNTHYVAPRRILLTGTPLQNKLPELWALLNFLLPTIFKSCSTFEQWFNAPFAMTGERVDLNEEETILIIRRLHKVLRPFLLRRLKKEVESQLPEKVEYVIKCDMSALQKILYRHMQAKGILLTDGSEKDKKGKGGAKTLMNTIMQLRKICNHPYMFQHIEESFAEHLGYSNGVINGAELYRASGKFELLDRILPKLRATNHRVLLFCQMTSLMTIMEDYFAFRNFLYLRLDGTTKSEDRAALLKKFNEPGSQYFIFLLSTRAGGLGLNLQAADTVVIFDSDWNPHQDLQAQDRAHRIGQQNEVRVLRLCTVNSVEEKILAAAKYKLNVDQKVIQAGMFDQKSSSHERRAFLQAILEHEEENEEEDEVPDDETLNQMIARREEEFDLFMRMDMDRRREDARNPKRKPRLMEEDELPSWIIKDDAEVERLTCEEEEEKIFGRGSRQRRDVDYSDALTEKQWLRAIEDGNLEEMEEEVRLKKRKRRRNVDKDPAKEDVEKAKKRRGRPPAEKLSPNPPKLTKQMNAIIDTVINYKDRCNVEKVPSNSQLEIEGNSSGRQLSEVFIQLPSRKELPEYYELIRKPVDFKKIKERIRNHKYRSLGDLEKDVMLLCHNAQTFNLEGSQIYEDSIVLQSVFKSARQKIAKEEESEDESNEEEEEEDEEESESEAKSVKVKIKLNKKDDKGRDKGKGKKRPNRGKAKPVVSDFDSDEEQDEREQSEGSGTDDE
# assaySummary: In-cell Western screen of BRM degradation in SW1573 cells (Dmax and DC50)
# Type: cell-based
# runParameters: target protein degradation; read-out: BRM DC50

itemSmiles: Cc1ncsc1-c1ccc([C@H](C)NC(=O)[C@@H]2C[C@@H](O)CN2C(=O)[C@H](c2cc(N3CCC(OC4CCN(C[C@H]5C[C@H](Oc6cc(N7C8CCC7CN(c7cc(-c9ccccc9O)nnc7N)C8)ccn6)C5)CC4)CC3)no2)C(C)C)cn1
DC50: > 30 nM

[Q] Annotate the compound Cc1cc([C@H](C(=O)N2C[C@H](O)C[C@H]2C(=O)N[C@@H](C)c2ccc(-c3scnc3C)cc2)[C@@H](C)CO[C@H]2C[C@@H](Oc3cc(N4C5CCC4CN(c4cc(-c6ccccc6O)nnc4N)C5)ccn3)C2)on1 with its measured DC50.
[A] > 30 nM

###

# testSystem: BRM (Homo sapiens, UniProt P51531)
# Construct: In-Cell Western Screen of BRM Degradation in SW1573 Cells; endogenous in cells; host or cells: SW1573
# assaySummary: In-cell Western screen of BRM degradation in SW1573 cells (Dmax and DC50)
# Assay type: cell-based
# runParameters: BRM degradation, SW1573 cells; read-out: DC50
measurementKind: DC50

Observe how each entry below is paired with its result.
compound: Cc1ncsc1-c1ccc(CNC(=O)[C@@H]2C[C@@H](O)CN2C(=O)[C@@H](c2cc(OCCOCCOCCOCCn3cc(-c4cc(-c5ccccc5O)nnc4N)cn3)no2)C(C)C)cc1 [compound 17]
measurementKind: DC50
result: 2.5 to 10 nM
//
compound: Cc1ncsc1-c1ccc(CNC(=O)[C@@H]2C[C@@H](O)CN2C(=O)C(c2cc(OCC=Cc3ccc(OC4CC(Oc5cc(N6C7CC[C@@H]6CN(c6cc(-c8ccccc8O)nnc6N)C7)ccn5)C4)cn3)no2)C(C)C)cc1 (stereo partly drawn) [compound 56]
measurementKind: DC50
result: < 2.5 nM

Consider the record given below.
[Q] Provide only the value of recorded DC50 for CC(C)[C@H](C(=O)N1C[C@H](O)C[C@H]1C(=O)N[C@@H](C)c1ccc(-c2nccn2C)cc1)c1cc(OCCN2CCN(CCOc3cc(N4C5CCC4CN(c4cc(-c6ccccc6O)nnc4N)C5)ccn3)CC2)no1 [compound 159]
[A] > 30 nM

###

# testSystem: BRM (Homo sapiens, UniProt P51531)
# Construct: In-Cell Western Screen of BRM Degradation in SW1573 Cells; endogenous in cells; host or cells: SW1573
# assaySummary: In-cell Western screen of BRM degradation in SW1573 cells (Dmax and DC50)
# Format: cell-based
# runParameters: BRM degradation, SW1573 cells; Table 2D; read-out: *DC50
measurementKind: DC50

Below, 3 compounds whose answers are already recorded.
compound: Cc1ncsc1-c1ccc([C@H](C)NC(=O)[C@@H]2C[C@@H](O)CN2C(=O)[C@H](c2cc(OCC[C@H]3CCN(C[C@H]4C[C@H](Oc5cc(N6C7CCC6CN(c6cc(-c8ccccc8O)nnc6N)C7)ccn5)C4)[C@@H](C)C3)no2)C(C)C)cc1 (racemic)
DC50: > 30 nM

compound: Cc1nccn1-c1ccc([C@H](C)NC(=O)[C@@H]2C[C@@H](O)CN2C(=O)[C@@H](c2cc(N3CCC(O[C@H]4C[C@H](Oc5cc(N6C7CCC6CN(c6cc(-c8ccccc8O)nnc6N)C7)ccn5)C4)CC3)no2)C(C)C)cc1
DC50: < 2.5 nM

compound: Cc1ncsc1-c1ccc([C@H](CCCC(N)=O)NC(=O)[C@@H]2C[C@@H](O)CN2C(=O)[C@H](c2cc(OCCN3CCC(O[C@H]4C[C@H](Oc5cc(N6C7CCC6CN(c6cc(-c8ccccc8O)nnc6N)C7)ccn5)C4)CC3)no2)C(C)C)cc1
DC50: > 30 nM

Let us examine a further case.
[Q] Supply DC50 value. Item: Cc1ncsc1-c1cc(F)c([C@@H](C)NC(=O)[C@@H]2C[C@@H](O)CN2C(=O)[C@@H](c2cc(OCCN3CCC(O[C@H]4C[C@H](Oc5cc(N6C7CCC6CN(c6cc(-c8ccccc8O)nnc6N)C7)ccn5)C4)CC3)no2)C(C)C)cn1
[A] > 30 nM
